tested target: Melatonin receptor type 1A (Homo sapiens)
Sequence (P48039 whole entry): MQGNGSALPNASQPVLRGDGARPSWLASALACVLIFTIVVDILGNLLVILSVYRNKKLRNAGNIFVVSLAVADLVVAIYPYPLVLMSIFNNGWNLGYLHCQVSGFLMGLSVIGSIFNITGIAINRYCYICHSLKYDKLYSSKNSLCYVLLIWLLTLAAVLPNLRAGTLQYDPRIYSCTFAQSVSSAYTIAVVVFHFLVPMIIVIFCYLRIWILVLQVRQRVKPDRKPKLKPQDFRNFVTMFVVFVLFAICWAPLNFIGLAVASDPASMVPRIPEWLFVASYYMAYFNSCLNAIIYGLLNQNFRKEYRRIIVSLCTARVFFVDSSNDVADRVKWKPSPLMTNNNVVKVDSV
assay details: Inverse agonist activity at human melatonin MT1 receptor expressed in HEK293 cells co-transfected with Galphai9 chimera construct assessed as stimulation of inositol phosphate production by HTRF based assay
Format: functional, cell-based
pEC50: −log10 of the molar value.
measured endpoint: pEC50

> print(dat)
                                   compound  measured.endpoint  endpoint.value
1  O=C(NCCc1c(C(O)c2ccccc2)[nH]c2ccccc12)C(F)(F)F (stereo unspecified)              pEC50          > 5.00

---

tested target: Melatonin receptor type 1B (Homo sapiens, UniProt P49286)
Sequence (P49286 whole entry): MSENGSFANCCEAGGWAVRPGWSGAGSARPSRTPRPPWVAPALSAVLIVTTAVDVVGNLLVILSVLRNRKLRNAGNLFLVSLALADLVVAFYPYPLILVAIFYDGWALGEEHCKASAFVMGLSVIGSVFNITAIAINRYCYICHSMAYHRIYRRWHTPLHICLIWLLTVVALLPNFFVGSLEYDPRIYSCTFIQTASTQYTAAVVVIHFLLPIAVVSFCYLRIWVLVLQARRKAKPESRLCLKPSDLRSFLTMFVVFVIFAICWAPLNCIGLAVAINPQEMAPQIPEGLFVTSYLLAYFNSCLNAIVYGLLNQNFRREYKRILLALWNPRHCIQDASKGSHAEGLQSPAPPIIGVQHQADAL
Response field label takes T when Ki is strictly below 5 µM and F in all other cases.

> print(dat)
                                   compound  group
1  CN1CC(=O)NC(CCc2c(C(O)c3ccccc3N)[nH]c3ccccc23)C1=O (stereo not given)      F
2  COc1ccc(C(O)c2[nH]c3ccc(OC)cc3c2CCNC(C)=O)cc1 (stereo not given)      T
3  COc1ccc2[nH]c(C(O)c3ccccc3)c(CCNC(C)=O)c2c1 (stereo not given)      T
4  COC(=O)NCCc1c(C(O)c2ccc(Cl)cc2)[nH]c2ccccc12 (stereo not given)      F
5  COc1ccc2[nH]c(C(O)c3ccc(F)cc3)c(CCNC(C)=O)c2c1 (stereo not given)      T
